# Tested on: HIV
# PROTOCOL_SUMMARY: Inhibitory activity for HIV infection (protection of HIV-infected MT-4 cells from death)
# Assay type: cell-based
# CONDITION_LABEL: 5 days incubation at 37° C., concentration preventing the death of 50% of the MT-4 cells
MEASUREMENT_TYPE: IC50 (nM)
State the answer as a number, implicitly in nM.

Inquiry: Given COCn1c(Sc2ccccc2)c(C)c(=O)[nH]c1=O [Compound 22, 1-(methoxymethyl)-6-phenylthiothymine] , state its recorded IC50.
Reply text: 2100

Entry source: patent USRE37979E1
